// provenance: patent US20230220053A1

- MEASUREMENT_TARGET: S1 protein of SARS-CoV-2 (recombinant, construct not stated) (SARS-CoV-2, UniProt P0DTC2 16-685)
- ASSAY_PROTOCOL: ELISA, S1 coated, scFv titrated, anti-Flag HRP
MEASURED_ENDPOINT: log10 EC50 (log10 of the value in nM)
Please note: log10 values; quantity EC50; unit nM.

BINDER	MEASURED_RESULT
2020EP60-A12 scFv (scFv) scFv: EVQLVESGGGVVQPGRSLRLSCAASGFTFSSYGMHWVRQAPGKGLEWVAVISYDGSNKYYADSVKGRFTISRDNSKNTLYLQMNSLRAEDTAVYYCAKGLEYYFDYWGQGTLVTVSSGGGGSGGGGSGGGGSSYELTQPPSLSVSPGQTARITCSGDALPEQYAYWYQQKPGQAPVLVIYKDSERPSGIPERFSGSSSGTTVTLTISGVQAEDEADYYCQAWDSSTVVFGGGTKLTVL	1.44
2020EP54-E10 scFv (scFv, also called 2020EP054-E10) scFv: QVQLVQSGAEVRKPGSSVKVSCKASGGTFSSFAISWVRQAPGQGLEWMGGIIPIFDTATYAQNFQGRVRMTADESTNTAYMELSSLTSEDTAVYYCARSTSYYDSRGDYKVGDFDYWGQGTLVTVSSGGGGSGGGGSGGGGSAIRMTQSPSSLSASVGDRVTITCQASQDISNYLNWYQQKPGKAPKLLIYDASNLETGVPSRFSGSGSGTDFTFTISSLQPEDIATYYCQQYDNLPLTFGGGTKVEIK	-0.81
2020EP64-C08 scFv (scFv) scFv: QMQLVQSGAEVKKPGSSVKVSCKASGGTFSSYAISWVRQAPRQGLEWMGRIIPILGIANYAQKFQGRVTITADKSTSTAYMELSSLRSEDTAVYYCASSYGGNQLWGQGTLVTVSSGGGGSGGGGSGGGGSQSVLTQPPSASGTPGQRVTISCSGSDSNIGTNTVNWYQQVPGTAPKVLIYSTHQRPSGVPDRFSASKSGTSASLAISGLQSEDEADYYCSSWDVSLNAWVFGGGTKVTVL	1.60

Query: Any idea what its log10 EC50 is? The binder is 2020EP54-E12 scFv (scFv, also called 2020EP054-E12) scFv: EVQLVESGGGLVQPGGSLRLSCAVTGFIVSSNYMNWVRQAPGKGLEWVSVIYSGGTTYYADSVKGRFTISRDKSKNTLYLQMNNLRAEDTAMYYCATLGNDYGDYGTDYWGQGTLVTVSSGGGGSGGGGSGGGGSQLVLTQPPSVSVSPGQTASISCSGDRLGQKYTSWYQQRPGQSPVLIMYQDNKRPSGIPERFSGSNSGNTATLTISGIQSMDEADYYCQVWDSGSDHAVFGGGTQLTVL
Reply: -0.13

Query: Any idea what its log10 EC50 is? The binder is 2020EP66-A07 scFv (scFv) scFv: EVQLVQSGAEVKKPGSSVKVSCKASGGTFSSYAISWVRQAPGQGLEWMGGIIPIFGTANYAQKFQGRVTITADESTSTAYMELSSLRSEDTAVYYCASGGDGYNYDYYYYGMDVWGQGTTVTVSSGGGGSGGGGSGGGGSSYELTQPPSVSVSPGQTATITCSGEKLGDKYSFWYQQKPGQSPVMVMYQDDQRPSGTPERFSGSNSGNTATLTISGTRATDEADYYCQAWDNSASVFGSGTKLTVL
Reply: -0.28

Query: Any idea what its log10 EC50 is? The binder is 2020EP64-G10 scFv (scFv) scFv: QVQLVQSGGGVVQPGRSLRLSCAASGFTFSSYAMHWVRQAPGKGLEWVAVISYDGSNKYYADSVKGRFTISRDNSKNTLYLQMNSLRAEDTAVYYCARDGEDGYNYISPFDYWGQGTLVTVSSGGGGSGGGGSGGGRSSYELTQPPSVSVAPGETARITCRGNDIGSKSVHWYQQKPGQAPVLVLYYDSDRPSGIPERFSGSNSGNTATLTISSVEAGDEADYYCHVWDIDVVFGGGTKLTVL
Reply: -0.03

Query: Any idea what its log10 EC50 is? The binder is 2020EP66-D03 scFv (scFv) scFv: QVQLQQWGAGLLKPSETLSLTCAVYGGSFSGYYWSWIRQPPGKGLEWIGEINHSGSTNYNPSLKSRVTISVDTSKNQFSLKLSSVTAADTAVYYCARGPPLWNYGKGFDYWGQGTLVTVSSGGGGSGKGGSGGGGSQPVLTQPPSASGTPGQRVTISCSGSSSNIGSNYVYWYQQLPRTAPKLLIYRNNQRPSGVPDRFSGSKSGTSASLAISGLRSEDEADYYCAAWDDSLSAWVFGGGTKLTVL
Reply: -0.29

Query: Any idea what its log10 EC50 is? The binder is 2020EP53-D06 scFv (scFv) scFv: QVQLVQSGGGVVQPGRSLRLSCAASGFTFSSYAMHWVRQAPGKGLEWVAVISYDGSNKYYADSVKGRFTISRDNSKNTLYLQMNSLRAEDTAVYYCARDGEDGYNYISPFDYWGQGTLVTVSSGGGGSGGGGSGGGGSSYELTQPPSVSVAPGETARITCRGNDIGSKSVHWYQQKPGQAPVLVLYYDSDRPSGIPERFSGSNSGNTATLTISSVEAGDEADYYCQVWDIDVVFGGGTKLTVL
Reply: -0.29

Query: Any idea what its log10 EC50 is? The binder is 2020EP75-E02 scFv (scFv) scFv: QMQLVQSGAEVKKPGSSVKVSCKASGGTFSSYAISWVRQAPGQGLEWMGGIIPIFGTANYAQKFQGRVTITADKSTSTAYMELSSLRSEDTAVYYCARPRDYRAQYYFDYWGQGTLVTVSSGGGGSGGGGSGGGGSDIVMTQSPSSLSASVGDRVTITCRAGQDIDTSVNWYQLKPGKAPRLLIYASSSLQTGVPSRFSGGGSGAEFTLTISSLQPEDFATYFCQQTFSTSVTFGGGTKVEIK
Reply: -0.65

Query: Any idea what its log10 EC50 is? The binder is 2020EP71-E04 scFv (scFv) scFv: QVQLVQSGGGVVQPGRSLRLSCAASGFTFSSYGMHWVRQAPGKGLEWVAVISYDGSNKYYADSVKGRFTISRDNSKNTLYLQMNSLRAEDTAVYYCAKDRAYYYGYYYYYYGMDVWGQGTTVTVSSGGGGSGGGGSGGGGSQSVLTQPPSVSGAPGQRVTISCTGSSSNIGAGYDVHWYQQLPGTAPKLLIYGNSNRPSGVPDRFSGSKSGTSASLAITGLQAEDEADYYCATWDDSLSGPVFGGGTKVTVL
Reply: 0.70
